Record form. Attribute: Percent Effect. Fill in for each entry.
Tested on: Wolbachia pipientis
Experiment: Anti-Wolbachia Cell-Based Screen
Format: functional
Set-up: scale not given: in the data most compounds retested in dose-response had high values
Settings: 5 µM
Out of some 48,000 compounds screened, about 13,000 (27%) showed an effect of 50% or more. Some of the results follow.
One number for each entry, in %.

Input line: What value of Percent Effect has been recorded for this entry: Cc1ccoc1C(=O)N1CCO[C@H]2[C@H](OCC3CCOCC3)CC[C@@H]21
Output line: -7.099

Input line: What value of Percent Effect has been recorded for this entry: CCOCC1CN(S(=O)(=O)CC)Cc2nn(C)cc21 (centres undefined)
Output line: -1.442

Input line: What value of Percent Effect has been recorded for this entry: Cc1ccoc1C(=O)N1CCO[C@H]2[C@H](OCc3ccncc3)CC[C@@H]21
Output line: 96.45

Input line: What value of Percent Effect has been recorded for this entry: Cc1cccc(C(=O)N2CCO[C@H]3[C@H](OCCN(C)C)CC[C@@H]32)n1
Output line: 97.76

Input line: What value of Percent Effect has been recorded for this entry: COc1ccc2c(c1)CCCN(C(C)C(=O)NC(N)=O)C2 (centres undefined)
Output line: -1.078

Return reported Percent Effect values for all items listed beneath this line.
1. CO[C@H]1CC[C@H]2[C@H]1OCCN2C(=O)c1ccc(C)nc1
2. Cc1nc(-c2cccc(N3CCC(N4CCCC(C#N)C4)CC3)c2)cs1 (centres undefined)
3. CN(C)CCO[C@@H]1CC[C@H]2[C@H]1OCCN2C(=O)c1ccc(F)cc1.O=C(O)C(F)(F)F
4. CO[C@@H]1CC[C@H]2[C@H]1OCCN2C(=O)c1ccc(C)nc1.O=C(O)C(F)(F)F

Output line:
1. 6.779
2. 9.753
3. 97.45
4. 2.504
